Value source: the Deep4Chem optical property database

Measured fluorescence lifetime, listed per entry for reference.
test_name: solvent given as SMILES
measurement_parameters: in CC(O)CO
Write it as a number; the unit ns goes unstated.

Some molecules with known fluorescence lifetime results, for comparison:
>  <molecule>
COC(=O)C(Cc1ccc2oc(-c3ccc(N(C)C)cc3)nc2c1)NC(=O)OC(C)(C)C (stereo not given)

>  <fluorescence lifetime / ns>
1.32

$$$$
>  <molecule>
N#Cc1ccc(C[C@H](N)C(=O)O)cc1

>  <fluorescence lifetime / ns>
4.28

$$$$
>  <molecule>
COC(=O)C(Cc1ccc2oc(-c3ccc(N(C)c4ccccc4)cc3)nc2c1)NC(=O)OC(C)(C)C (stereo not given)

>  <fluorescence lifetime / ns>
0.88

$$$$
>  <molecule>
COC(=O)C(Cc1ccc2oc(-c3ccc(Nc4ccccc4)cc3)nc2c1)NC(=O)OC(C)(C)C (stereo not given)

>  <fluorescence lifetime / ns>
0.54

$$$$

Then this molecule:
Item under review: COC(=O)C(Cc1ccc2oc(-c3ccc4c(c3)c3ccccc3n4-c3ccccc3)nc2c1)NC(=O)OC(C)(C)C (stereo not given) . Reported fluorescence lifetime?
1.74
